Stimulation Index values by entry
# System: 3T3-L1 cells
# ASSAY NOTES: Glucose uptake assay using 3T3-L1 cells
# Format: cell-based
# CONDITION SUMMARY: differentiated 3T3-L1 adipocytes, 1 μM, 72 hours, 14C deoxyglucose uptake for 10 minutes; with reference to stimulation index of BLX-1002
PROPERTY: Stimulation Index

1) CCN1C(=O)OC[C@@H]1Cc1ccc(Oc2ccc(Nc3ncccc3[N+](=O)[O-])cc2F)cc1 [Example 12] = 0.935
2) CCN1C(=O)OC[C@@H]1Cc1ccc(Oc2ccc(Nc3ncccc3C#N)cc2F)cc1 [Example 13] = 0.874
3) CCN1C(=O)OC[C@@H]1Cc1ccc(Oc2ccc(Nc3ccccn3)cc2F)cc1 [Example 8] = 1.049
4) CN1C(=O)OC[C@@H]1Cc1ccc(Oc2ccc(Nc3ccccn3)cc2)cc1 [Example 1] = 0.827
5) CCN1C(=O)OC[C@@H]1Cc1ccc(Oc2ccc(Nc3ncccc3C#N)cc2)cc1 [Example 14] = 0.827
6) CN1C(=O)OC[C@@H]1Cc1ccc(Oc2ccc(Nc3ccc([N+](=O)[O-])cn3)cc2)cc1 [Example 2] = 0.935
